Consider the following binders; for each one, report its IC50, huIL-6 secretion by BJ cells; stimulus rhuIL-17A (0.5 nM).
# target: T1, recombinant human IL-17A (SEQ ID NO: 76) (human, UniProt Q16552 24-155, limits assumed)
# T1 sequence: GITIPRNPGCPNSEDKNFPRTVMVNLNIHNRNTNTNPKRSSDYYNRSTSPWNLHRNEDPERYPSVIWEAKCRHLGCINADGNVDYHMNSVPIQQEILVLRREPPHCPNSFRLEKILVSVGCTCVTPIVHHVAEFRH
# test-details: cell-based or functional assay
Answers are plain numbers, in nM.

A selection of reference data follows.
- XAB4 (antibody, human IgG1, kappa, V domains shown, also called MB435 N56Q) VH: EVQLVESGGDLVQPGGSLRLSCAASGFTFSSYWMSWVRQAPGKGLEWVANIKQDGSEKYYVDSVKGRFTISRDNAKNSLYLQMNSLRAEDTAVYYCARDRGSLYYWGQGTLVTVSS VL: AIQLTQSPSSLSASVGDRVTITCRPSQGINWELAWYQQKPGKAPKLLIYDASSLEQGVPSRFSGSGSGTDFTLTISSLQPEDFATYYCQQFNSYPLTFGGGTKVEIKR: 0.55
- XAB5 (antibody, human IgG1, kappa, V domains shown) VH: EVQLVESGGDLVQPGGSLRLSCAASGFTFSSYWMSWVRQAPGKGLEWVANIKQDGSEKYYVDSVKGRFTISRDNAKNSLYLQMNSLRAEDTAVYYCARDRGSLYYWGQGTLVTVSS VL: AIQLTQSPSSLSASVGDRVTITCRPSQGINWELAWYQQKPGKAPKLLIYDASSLENGVPSRFSGSGSGTDFTLTISSLQPEDFATYYCQQFNSYPLTFGGGTKVEIKR: 0.54

In: State its IC50, huIL-6 secretion by BJ cells; stimulus rhuIL-17A (0.5 nM): XAB3 (antibody, human IgG1, kappa, V domains shown, also called MB468 N56Q) VH: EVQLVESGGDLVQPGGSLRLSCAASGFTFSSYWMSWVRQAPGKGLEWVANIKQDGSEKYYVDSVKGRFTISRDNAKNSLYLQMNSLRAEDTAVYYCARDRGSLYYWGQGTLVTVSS VL: AIQLTQSPSSLSASVGDRVTITCRPSQGIYWELAWYQQKPGKAPKLLIYDASSLEQGVPSRFSGSGSGTDFTLTISSLQPEDFATYYCQQFNSYPLTFGGGTKVEIKR
Out: 0.5
